Test system: SF-295
Assay summary: NCI tumour cell line growth inhibition, 48 h
Active and inactive are the calls of the source. No stated cut-off is given here; in the data, active = GI50 up to about 1.1 µM and inactive = higher.
Outcome codes: label 1 for active, label 0 for inactive

• O=C1NC2=NOC(=O)NC2=NO1 = label 0
• COC(=O)c1ccc(NCC2=CC(=O)c3ccccc3C2=O)cc1 = label 0
• O=C1c2c(F)c(F)c(F)c(F)c2SC2=Nc3cccc4cccc(c34)N12 = label 0
• Clc1nc2c(-c3cccs3)ncnc2n1Cc1ccccc1 = label 0
• O=C(Nc1cccc2c1[nH]c1c(-c3ccccc3)nccc12)c1ccccc1[N+](=O)[O-] = label 0
• Nc1cc([N+](=O)[O-])ccc1C(=O)N1CCC[C@H]1CO = label 0
• O=c1cc[nH]c2ccc3nn[nH]c3c12 = label 0
• CC12CCCCC1(C)C2Sc1ccccc1 (stereo not drawn) = label 0
• COc1cc(/C=N/N=C(\N)NO)c([N+](=O)[O-])cc1OC = label 0
• N/C(=N\n1c(=S)[nH]c2ccccc2c1=O)Nn1c(=S)[nH]c2ccccc2c1=O = label 0
• O=C(O)C(=O)/C=C\c1ccc(Cl)cc1 = label 0
• C[C@]12CC[C@@H]3c4cc(C=O)c(OCc5ccccc5)cc4CC[C@H]3[C@@H]1CCC2OCc1ccccc1 (stereo partly drawn) = label 0
• CC(=O)Nc1ccc(C2CC(c3ccc([N+](=O)[O-])cc3)=Nc3ccccc3S2)cc1 (stereo not drawn) = label 0
• Cc1ccc(-c2cc(-c3ccccc3)nc(N)n2)c(O)c1 = label 0
• COc1c2c3c4c(c(OC)c(=O)c5c(O)cc(OC)c(c6c(OC)cc(O)c(c1=O)c63)c54)C(C(C)O)C2C(C)=O (stereo not drawn) = label 1
• O=C(O)c1ccccc1CC(Cc1ccccc1)C(=O)O (stereo not drawn) = label 0
• Cn1c2c(c3ccccc31)CCN1C(=O)C34CCCC3CC21S4 (stereo not drawn) = label 0
• C1=N\c2ccc(cc2)-c2ccc(cc2)/N=C\c2ccccc2OCc2cccc(n2)COc2ccccc2/1 = label 0
• CN1CCN(CCSC2Cc3cc(Cl)ccc3Sc3ccccc32)CC1 (stereo not drawn) = label 0
• NCCN1CC2CCC(CC2)C1 = label 0
• COc1ccc2c(c1)/c(=C/C#N)c1c3ccccc3[n+](C)n21 = label 0
• C=CCC1OC(C)(C)Oc2ccc(OCOCCOC)cc21 (stereo not drawn) = label 0
• CN(C)CCNCc1c2ccccc2c(CNCCN(C)C)c2ccccc12 = label 0

====

System: SNB-19
Assay summary: NCI tumour cell line growth inhibition, 48 h
The source made the active and inactive calls. Cut-off read from the data, not from the text of the source: active = GI50 up to about 1.1 µM and inactive = higher.
Outcome codes: yes for active, no for inactive

* CCC(NC1=NCCO1)c1cccs1 (configuration not stated) | no
* COc1ccc(-c2nc3c(C(=O)NCCN(C)C)cccc3c3ccccc23)cc1 | no
* O=C1c2c(F)c(F)c(F)c(F)c2SC2=Nc3cccc4cccc(c34)N12 | no
* COC(=O)[C@H]1[C@@H](O)[C@@]2(O)c3c(OC)cc(OC)cc3O[C@@]2(c2ccc3c(c2)OCO3)[C@@H]1c1ccccc1 | yes
* O=C(C[n+]1ccccc1)N/N=C(\Cc1nc2ccc([N+](=O)[O-])cc2nc1O)C(=O)Nc1cc(Cl)c(Cl)cc1Cl | no
* O=C(c1ccccc1)c1ccc2c(c1)N=C(c1ccc(Cl)c(Cl)c1)CC(c1ccc3ccccc3c1)N2 (configuration not stated) | no
* COC(=O)C1(C(=O)OC)CC2c3c(c4ccccc4n3C)CC(C1=O)N2Cc1ccccc1 (configuration not stated) | no

====

Tested on: OVCAR-8
Assay summary: NCI tumour cell line growth inhibition, 48 h
Activity calls are given as the source filed them. No stated cut-off is given here; in the data, active = GI50 up to about 1.1 µM and inactive = higher.
Outcome codes: class 1 (active), class 0 (inactive)

• Cc1ccccc1NC(=O)C1C(=O)N(c2ccccc2C)C(=O)/C1=N\NC(N)=O (configuration not stated) = class 0
• Cc1cc2c(cc1C)C(=O)/C(=N/Nc1ccc(F)cc1)CCO2 = class 0
• CN(C)c1snc2c1c(=O)n(C)c(=O)n2C = class 0
• Cc1c(C)c2c(c(N)c1C#N)C(=O)N(Nc1ccccc1)C2=O = class 0
• CCOC(=O)N[C@H]1CCc2cc(O)c(OC)c(OC)c2-c2ccc(SC)c(=O)cc21 = class 1
• Cc1nc2c(nc1C)C(=O)c1ccccc1C2=O = class 0
• C=C(C)C1CC/C(C)=C/CC[C@]2(C)O[C@H]2CC/C(COC(C)=O)=C\[C@@H]1O (some centres not stated) = class 0
• O=C1NC(=S)N/C1=C\c1ccc(Sc2ccccc2C(=O)O)s1 = class 0
• CC(=O)Nc1ccc(C2CC(c3ccc([N+](=O)[O-])cc3)=Nc3ccccc3S2)cc1 (configuration not stated) = class 0
• C1=C\SS/C=C\SS/1 = class 0
• O=c1c2c3c(sc2nc2n1N=CN(c1ccccc1)C2)CCCC3 = class 0
• C=CC(COC(=O)C(C)(C)OC(C)=O)c1ccc(OC(=O)C(C)C)c(OC)c1 (configuration not stated) = class 0
• CN(C)c1ccc(/C=C2\N=C(N/N=C/c3ccccc3)NC2=O)cc1 = class 0
• Cc1cc2ncn(-c3nc4ccccc4nc3C(C#N)S(C)(=O)=O)c2cc1C (configuration not stated) = class 0
• Cn1c2c(c3ccccc31)CCN1C(=O)C34CCCC3CC21S4 (configuration not stated) = class 0
• CC(=O)N(C(=O)CC(=O)NNCc1ccccc1Cl)c1ccc(Cl)cc1 = class 0
• COC(=O)c1sc2c(Cl)c(Cl)sc2c1Cl = class 0
• O=C(N=C1N(c2ccccc2)C(=O)C(=O)N1c1ccccc1)c1ccccc1 = class 0
• CCN1CC2(CO)CCC(OC)C34C5CC6C(OC)CC(O)(C5C6OC)C(O)(C(OC)C23)C14 (configuration not stated) = class 0
• CCOC(=O)C1C(c2ccccc2)=C(c2ccccc2)C(c2ccccc2)=C1c1ccccc1 = class 0
• COC(=O)CCCc1nc2ccccc2nc1/N=N/c1ccccc1 = class 0
• C[C@]12CC[C@@H]3c4cc(C=O)c(OCc5ccccc5)cc4CC[C@H]3[C@@H]1CCC2OCc1ccccc1 (some centres not stated) = class 0

====

Reported values of GI50 for individual entries
Tested on: LOX IMVI
Assay summary: NCI tumour cell line growth inhibition, 48 h
Calls of active or inactive are those of the source. Rule as the data show it: active = GI50 up to about 1.1 µM and inactive = higher.
Reported property: GI50

• Cc1cc(C)nc(NS(=O)(=O)c2ccc(Nc3c4ccccc4nc4ccc(C(=O)Nc5ccc(S(=O)(=O)N=C(N)N)cc5)cc34)cc2)n1 = 17 µM (inactive)
• CN(C)c1ccc(/C=N\NC(=O)CSCC(=O)N/N=C/c2ccc(N(C)C)cc2)cc1 = 33.2 µM (inactive)
• CC1CC[C@@]2(OC1)OC1CC3C4CCC5C[C@@H](OC6OC(CO)C(OC7OC(CO)C(O)C(OC8OC(CO)C(O)C(OC9OC(CO)C(O)C(O)C9O)C8O)C7OC7OC(CO)C(O)C(O)C7O)C(O)C6O)[C@H](O)C[C@]5(C)C4CC[C@]3(C)C1[C@@H]2C (stereo not given in full) = > 80.5 µM (inactive)
• O=c1[nH][nH]c(=O)n1CCCCCCn1c(=O)[nH][nH]c1=O = > 100 µM (inactive)
• COCCOC(=O)C(C)=[N+]=[N-] = > 100 µM (inactive)
• N=CCCN(CCC=N)c1ccc(/C=C2\CN(NC(=O)c3ccc(Cl)cc3)C(c3ccccc3)=N2)cc1 = 75 µM (inactive)
• Cc1ccc(O)cc1.Cc1cccc(O)c1.Cc1ccccc1O = > 100 µM (inactive)
• O=C1C=CC(=O)c2ncccc21 = 2.09 µM (inactive)
• CN(C)CCC(=O)N1C/C(=C\c2ccc(Cl)c(Cl)c2)C(=O)/C(=C/c2ccc(Cl)c(Cl)c2)C1 = 0.1 µM (active)
• O=C(Nc1cccc2c1[nH]c1c(-c3ccccc3)nccc12)c1ccccc1[N+](=O)[O-] = 24.5 µM (inactive)

====

Tested on: DLD-1
Assay summary: NCI tumour cell line growth inhibition, 48 h
Active and inactive are the calls of the source. Cut-off read from the data, not from the text of the source: active = GI50 up to about 1.1 µM and inactive = higher.
Reported values of GI50 for individual entries
Reported property: GI50

• O=c1cc[nH]c2ccc3nn[nH]c3c12 = > 100 µM (inactive)
• CCOc1ccccc1NC(=O)C1=C(C)NC(C)=C(C(=O)Nc2ccccc2OCC)C1c1ccc([N+](=O)[O-])cc1 = > 100 µM (inactive)
• N#Cc1c(N)oc2cc3c(C#N)c(N)oc3cc12 = > 100 µM (inactive)
• O=C(O)/C(=C/c1c(O)ccc2ccccc12)c1csc(-c2nc(/C(=C\c3c(O)ccc4ccccc34)C(=O)O)cs2)n1 = 12 µM (inactive)
• COC(=O)C1=C(O)c2cc(OC)c(OC)c(OC)c2C(c2ccc3c(c2)OCO3)[C@@H]1C(=O)OC (stereo partly specified) = 4.69 µM (inactive)
• CC12CCCCC1(C)C2Sc1ccccc1 (stereo unspecified) = 61.2 µM (inactive)
• O=C(c1ccccc1)c1ccc2c(c1)N=C(c1ccc(Cl)c(Cl)c1)CC(c1ccc3ccccc3c1)N2 (stereo unspecified) = > 100 µM (inactive)
• S=C(Nc1ccccc1)N(/N=C/C=C/c1ccccc1)c1nnc(-c2ccccc2)c(-c2ccccc2)n1 = 76.4 µM (inactive)
• CCN(CC)CCNC(=O)c1ccc([N+](=O)[O-])cc1OC = > 100 µM (inactive)
• CCOC(=O)C1C(c2ccccc2)=C(c2ccccc2)C(c2ccccc2)=C1c1ccccc1 = > 100 µM (inactive)
• CN(C)CCCn1c2c3ccccc3ccc2c2oc(=O)c3ccccc3c21 = 1.47 µM (inactive)
